Tested on: Spleen cells of naïve C57BL/6 mice
Assay type: cell-based
measurement name: Relative stimulation of IgA secretion

Ask: // returns reported Relative stimulation of IgA secretion for input O=C(Nc1c(Cl)cncc1Cl)c1ccc(OC(F)F)c(OCC2CC2)c1 [Roflumilast]
Result: +

Ask: // returns reported Relative stimulation of IgA secretion for input O=C(O)c1cc(/N=N/c2ccc(S(=O)(=O)Nc3ccccn3)cc2)ccc1O [Sulfasalazine, sulfasalazine]
Result: +++

Ask: // returns reported Relative stimulation of IgA secretion for input CC(C)(C)C(=O)Oc1ccc(S(=O)(=O)Nc2ccccc2C(=O)NCC(=O)O)cc1 [Sivelestat, sivelestat]
Result: ++

Ask: // returns reported Relative stimulation of IgA secretion for input CC(=O)Oc1ccccc1C(=O)O [Acetyl-salicylic acid (ASA), acetylsalicylic acid]
Result: ++
